// provenance: patent US4609655A

target: H^+ /K^+ ATPase (Oryctolagus cuniculus, UniProt P27112); construct: Rabbit gastric glands are isolated from gastric mucosa; from tissue; host or cells: isolated gastric glands from gastric mucosa of the corpus region of rabbit stomach; experiment: Inhibition of 14C-aminopyrine uptake in rabbit isolated gastric glands stimulated by DBcAMP or high K+ (H+/K+ ATPase inhibition); format: cell-based; settings: DBcAMP stimulation, compound at 10^-4 M, % inhibition of maximum response, read-out: % Inhibition to Stimulation by DBcAMP at 10^-4
Sequence (P27112 whole entry): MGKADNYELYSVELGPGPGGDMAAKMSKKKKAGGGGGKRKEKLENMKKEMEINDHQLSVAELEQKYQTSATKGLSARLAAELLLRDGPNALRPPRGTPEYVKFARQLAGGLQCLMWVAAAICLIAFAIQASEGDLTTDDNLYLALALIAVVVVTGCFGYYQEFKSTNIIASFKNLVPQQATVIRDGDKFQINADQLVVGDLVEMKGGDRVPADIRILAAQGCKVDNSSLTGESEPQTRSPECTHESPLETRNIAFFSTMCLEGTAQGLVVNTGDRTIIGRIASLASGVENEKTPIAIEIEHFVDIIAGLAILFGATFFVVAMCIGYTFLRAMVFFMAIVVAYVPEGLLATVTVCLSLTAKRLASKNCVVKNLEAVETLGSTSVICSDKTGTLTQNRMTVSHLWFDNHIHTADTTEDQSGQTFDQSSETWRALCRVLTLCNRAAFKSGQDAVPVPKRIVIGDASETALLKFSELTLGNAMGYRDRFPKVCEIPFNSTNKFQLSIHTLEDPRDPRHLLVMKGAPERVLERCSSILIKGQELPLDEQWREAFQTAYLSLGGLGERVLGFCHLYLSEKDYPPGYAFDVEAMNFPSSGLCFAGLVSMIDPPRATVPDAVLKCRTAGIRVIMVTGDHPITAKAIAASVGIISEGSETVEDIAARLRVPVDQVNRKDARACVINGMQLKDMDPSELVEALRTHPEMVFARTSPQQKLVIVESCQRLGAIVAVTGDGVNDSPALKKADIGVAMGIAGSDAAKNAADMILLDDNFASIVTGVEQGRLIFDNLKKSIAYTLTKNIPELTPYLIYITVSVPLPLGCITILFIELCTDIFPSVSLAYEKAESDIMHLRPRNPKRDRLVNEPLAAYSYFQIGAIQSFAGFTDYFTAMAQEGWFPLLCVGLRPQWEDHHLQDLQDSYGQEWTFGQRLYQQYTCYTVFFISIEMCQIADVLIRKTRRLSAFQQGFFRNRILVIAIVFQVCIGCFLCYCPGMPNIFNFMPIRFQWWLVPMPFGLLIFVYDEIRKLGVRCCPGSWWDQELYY
Sequence (P18597 whole entry partner): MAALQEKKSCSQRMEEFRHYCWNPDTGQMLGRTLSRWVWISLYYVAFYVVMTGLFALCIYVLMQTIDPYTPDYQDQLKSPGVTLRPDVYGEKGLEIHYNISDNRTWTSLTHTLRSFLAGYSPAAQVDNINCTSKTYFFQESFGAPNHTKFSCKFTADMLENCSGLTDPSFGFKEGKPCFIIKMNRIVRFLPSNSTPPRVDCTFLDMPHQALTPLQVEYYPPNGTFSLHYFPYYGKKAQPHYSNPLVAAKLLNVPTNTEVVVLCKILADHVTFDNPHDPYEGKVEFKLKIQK
Label Satisfied when inhibition at 100 µM is at or above 50%; anything below gets Not satisfied.

Ask: # bool: inhibition at 100 µM of "c1ccc(CSc2nc3cccc4c3n2CCC4)cc1" >= 50%
Result: Satisfied

Ask: Decide: is the reported value of inhibition at 100 µM for "C1=Cc2cccc3nc(SCc4ccccc4)n(c23)C1" equal to or greater than 50%?
Result: Not satisfied

Ask: Could you verify whether the entry "Clc1cccc(CSc2nc3cccc4c3n2CCC4)c1" shows inhibition at 100 µM of no less than 50%?
Result: Satisfied

Ask: Decide: is the reported value of inhibition at 100 µM for "Fc1ccc(CSc2nc3cccc4c3n2CCC4)cc1" equal to or greater than 50%?
Result: Not satisfied

Ask: Has "Clc1ccc(CSc2nc3cccc4c3n2CCC4)cc1" a recorded inhibition at 100 µM greater than or equal to 50%?
Result: Satisfied

Ask: Record "Fc1ccccc1CSc1nc2cccc3c2n1CCC3" ; criterion: inhibition at 100 µM no lower than 50%. Met?
Result: Not satisfied

Ask: Decide: inhibition at 100 µM of "Clc1ccccc1CSc1nc2cccc3c2n1CCC3" >= 50%?
Result: Not satisfied

---

experiment: Stress-induced erosion test of Senay and Levine (anti-ulcer activity); format: in vivo; settings: Dose 100 mg/kg
attribute.measured: Stress Induced Erosion (Senay & Levine) % Inhibition (%)
Value expressed in %; do not type the unit.

Ask: Give the measured Stress Induced Erosion (Senay & Levine) % Inhibition of Clc1ccccc1CSc1nc2cccc3c2n1CCC3 [Example 4] .
Result: 55

Ask: Return reported Stress Induced Erosion (Senay & Levine) % Inhibition; argument: C1=Cc2cccc3nc(SCc4ccccc4)n(c23)C1 [Example 7]
Result: 54

Ask: Using the record for Fc1ccc(CSc2nc3cccc4c3n2CCC4)cc1 [Example 3] , report its Stress Induced Erosion (Senay & Levine) % Inhibition.
Result: 62

Ask: Request the reported Stress Induced Erosion (Senay & Levine) % Inhibition associated with c1ccc(CSc2nc3cccc4c3n2CCC4)cc1 [Example 1]
Result: 83

---

target: H^+ /K^+ ATPase (Oryctolagus cuniculus, UniProt P27112); construct: Rabbit gastric glands are isolated from gastric mucosa; from tissue; host or cells: isolated gastric glands from gastric mucosa of the corpus region of rabbit stomach; assay: Inhibition of 14C-aminopyrine uptake in rabbit isolated gastric glands stimulated by DBcAMP or high K+ (H+/K+ ATPase inhibition); type: cell-based; details: high K+ stimulation, compound at 10^-4 M, % inhibition of maximum response, read-out: % Inhibition to Stimulation by K^+ at 10^-4
Tag: yes (1) if measured inhibition at 100 µM is not below 90%, no (0) if it is.

Ask: I'd appreciate it if you could say whether Clc1cccc(CSc2nc3cccc4c3n2CCC4)c1 [Example 2] has inhibition at 100 µM at least equal to 90%.
Result: no (0)

Ask: Dear colleague, could you confirm whether Fc1ccccc1CSc1nc2cccc3c2n1CCC3 [Example 6] has inhibition at 100 µM at or above 90%?
Result: yes (1)

Ask: Determine whether measured inhibition at 100 µM meets or exceeds 90% for Fc1ccc(CSc2nc3cccc4c3n2CCC4)cc1 [Example 3]
Result: no (0)

Ask: Answer whether inhibition at 100 µM of Clc1ccccc1CSc1nc2cccc3c2n1CCC3 [Example 4] is greater than or equal to 90%.
Result: no (0)

Ask: Reported inhibition at 100 µM at or above 90%? C1=Cc2cccc3nc(SCc4ccccc4)n(c23)C1 [Example 7]
Result: no (0)

Ask: Determine whether this molecule has inhibition at 100 µM no lower than 90%: c1ccc(CSc2nc3cccc4c3n2CCC4)cc1 [Example 1]
Result: yes (1)

Ask: Would you say Clc1ccc(CSc2nc3cccc4c3n2CCC4)cc1 [Example 5] shows inhibition at 100 µM at minimum 90%?
Result: yes (1)
